test: Plasma drug level in mice by LC-MS/MS; conditions: C57BL/6, mouse, po, 30 mg/kg, plasma levels in combination DDL-701+DDL-750, mice, oral gavage 30 mg/kg, combination, FIG. 5
RECORDED_METRIC: concentration at 2 h (nM)
Field format: number, assumed nM, no unit text.

IN: # return recorded concentration at 2 h for input `CC1=NN(c2ccc(C)c(C)c2)C(=O)/C1=N/Nc1cccc(-c2cccc(C(=O)O)c2)c1O`
OUT: 4000

Shifting focus to the compound that follows.
IN: # return recorded concentration at 2 h for input `CC(C)(C)[C@H](NC(=O)C(F)(F)F)C(=O)N1C[C@H]2[C@@H]([C@H]1C(=O)N[C@H](C#N)C[C@@H]1CCNC1=O)C2(C)C`
OUT: 100

----------
assay: Plasma drug level in mice by LC-MS/MS; settings: C57BL/6, mouse, po, 30 mg/kg, plasma levels, mice, oral gavage 30 mg/kg, given alone, FIG. 5
RECORDED_METRIC: concentration at 2 h

The cases that follow already have their concentration at 2 h on record.
IN: # return recorded concentration at 2 h for input `COc1cc(C(=O)NS(=O)(=O)c2ccccc2C)ccc1Cc1cn(C)c2ccc(NC(=O)OC3CCCC3)cc12`
OUT: ~4 µM

IN: # return recorded concentration at 2 h for input `CC1=NN(c2ccc(C)c(C)c2)C(=O)/C1=N/Nc1cccc(-c2cccc(C(=O)O)c2)c1O`
OUT: ~11 µM

Shifting focus to the molecule that follows.
IN: # return recorded concentration at 2 h for input `CC(C)(C)[C@H](NC(=O)C(F)(F)F)C(=O)N1C[C@H]2[C@@H]([C@H]1C(=O)N[C@H](C#N)C[C@@H]1CCNC1=O)C2(C)C`
OUT: ~0.4 µM

----------
target: SARS-CoV-2 PL^pro (Severe acute respiratory syndrome coronavirus 2, UniProt P0DTD1); experiment: biochemical; settings: PL^pro peptide substrate, dose response; read-out: IC50 PL^pro inhibition
RECORDED_METRIC: IC50 (µM)
Field format: number, assumed µM, no unit text.

IN: # return recorded IC50 for input `CC1=NN(c2ccc(C)c(C)c2)C(=O)/C1=N/Nc1cccc(-c2cccc(C(=O)O)c2)c1O`
OUT: 13
